# Test system: gene editing with dCas9
# assayOverview: Screen of 322 new SSAP proteins, gene editing activity with dCas9 (Table 5)
# Type: cell-based
# details: normalized
measuredQuantity: dCas9 with SSAP activity (normalized)

SSAP_145: SEQ ID NO: 314; Roseburia sp. CAG: 182 (protein, listed as Roseburia sp.) DVKEELAKMAEEKPTKKLTKSMSIQDMIKVIEPEIKKALPSVLTPERFTRMALSAINNTPKLAECSQISFLAALMNAAQLGLEPNTPLGQAYLIPFQNKGKLECQFQIGYKGIIELVYRNPLIQTIQAQVVYENDEFEYELGLNSRLFHRPALYDRGETVLFYALFKMSNGGYGFEVLSKQDMDAYAKRYSKGISSEYSPWKSNYEEMAKKTMIKKVLKYAPIRTDFQKAVSMDESIKKELSVDMSEVSNENIIDMEEITQEEE; −0.309
SSAP_70: SEQ ID NO: 239 (protein) SNLKNQLANKAGGTATKKQPQTMQDWIKVMEPQIKKALPSVITAERFTRMALTAISTNPKLAECTPESFMGALMNAAQLGLEPNTPLGQAYLIPYGKSVQFQVGYKGLMELAQRSGQFKSIYAHTVYENDEFEVEYGLTQNIVHKPNFDDRGKPIGFYAVYKLTNGGENFVFMTQREVEEFGKAKSKTFNNGPWKTDFEAMAKKTVLKQLLKYAPIKVEFQREIAQDATIKTEIAEDMTEVPEEMVEAEYEVVEQNTMAEDADLKGTPFETK; −0.652
